procedure-summary: Solubility of the compound at pH 7.4
Assay type: physicochemical
experimental-parameters: buffer
measured-property: solubility (mg/mL)
All answers are understood in mg/mL, so give the number only.

Would you kindly share the measured solubility for CCn1c(-c2cnc(C)nc2)nc2c(N[C@H]3CCN(C(=O)C4CC4)C3)ncnc21 ?
15

====

system-tested: PI3-kinase p110-delta/p85-alpha (Homo sapiens, UniProt O00329)
Sequence (P27986 whole entry, one chain of several): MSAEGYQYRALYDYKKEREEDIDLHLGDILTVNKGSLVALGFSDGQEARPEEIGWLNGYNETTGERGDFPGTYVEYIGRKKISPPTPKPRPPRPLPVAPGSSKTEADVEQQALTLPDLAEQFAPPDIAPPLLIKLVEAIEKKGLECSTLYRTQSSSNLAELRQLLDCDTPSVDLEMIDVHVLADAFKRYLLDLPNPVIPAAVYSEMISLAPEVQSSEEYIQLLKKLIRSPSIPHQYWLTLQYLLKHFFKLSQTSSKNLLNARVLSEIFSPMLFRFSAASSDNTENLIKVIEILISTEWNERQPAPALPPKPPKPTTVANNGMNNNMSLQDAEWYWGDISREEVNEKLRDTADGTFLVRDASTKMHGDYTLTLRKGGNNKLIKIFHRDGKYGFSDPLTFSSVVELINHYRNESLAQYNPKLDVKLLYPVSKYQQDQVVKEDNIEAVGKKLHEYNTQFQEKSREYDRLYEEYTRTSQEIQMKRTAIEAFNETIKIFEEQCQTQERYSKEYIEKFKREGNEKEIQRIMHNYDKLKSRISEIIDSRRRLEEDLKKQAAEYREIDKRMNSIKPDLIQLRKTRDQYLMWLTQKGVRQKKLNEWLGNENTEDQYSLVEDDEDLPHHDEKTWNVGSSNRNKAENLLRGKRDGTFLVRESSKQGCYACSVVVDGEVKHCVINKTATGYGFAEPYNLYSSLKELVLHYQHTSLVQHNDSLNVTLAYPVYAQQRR
procedure-summary: Inhibition of N-terminal His6-tagged recombinant full length human p110delta/untagged recombinant full length human p85alpha expressed in baculovirus infected Sf21 insect cells using PIP2 as substrate preincubated for 15 mins followed by substrate addition and measured after 1 hr by HTRF assay
In this section we review reported IC50 values for a set of molecules.
Express the result in nM but write the number alone.

Could you share which IC50 value was measured for CCC(=O)N1CC[C@H](Nc2ncnc3c2nc(-c2cnn(CC)c2C)n3CC(F)F)C1 ?
1.3

Now consider CCC(=O)N1CC[C@H](Nc2ncnc3c2nc(-c2cnc(C(C)(C)C)s2)n3C)C1 and answer again.
0.7

Try CCn1c(-c2ccc(C(F)(F)F)nc2)nc2c(O[C@H]3CCN(C(=O)C4CCOC4)C3)ncnc21 (some centres undefined) next.
4.1

Try the molecule CCC(=O)N1CC[C@H](Nc2ncnc3c2nc(-c2cnc(OC)c(F)c2)n3C)C1
2.6

Now the molecule CCC(=O)N1CC[C@H](Nc2ncnc3c2nc(-c2cnn(CC)c2C)n3CC)C1
0.2

Try this molecule too: CCn1c(-c2ccc(C(F)(F)F)nc2)nc2c(N[C@H]3CCN(C(=O)C4CC4)C3)ncnc21
1.7

Please give the result for CCn1c(-c2cnc(C)nc2)nc2c(N[C@H]3CCN(C(=O)C4CCOC4)C3)ncnc21 (some centres undefined) too.
1.6

Follow-up entry: CCn1c(-c2ccc(C(F)(F)F)nc2)nc2c(O[C@H]3CCN(C(=O)[C@H]4C[C@@H](OC)C4)C3)ncnc21
1.6

Next molecule: CCn1c(-c2ccc(C(F)(F)F)nc2)nc2c(O[C@H]3CCN(C(=O)N4CC(OC)C4)C3)ncnc21
1.3

====

system-tested: UniProt:Q12809
Sequence (Q12809 whole entry): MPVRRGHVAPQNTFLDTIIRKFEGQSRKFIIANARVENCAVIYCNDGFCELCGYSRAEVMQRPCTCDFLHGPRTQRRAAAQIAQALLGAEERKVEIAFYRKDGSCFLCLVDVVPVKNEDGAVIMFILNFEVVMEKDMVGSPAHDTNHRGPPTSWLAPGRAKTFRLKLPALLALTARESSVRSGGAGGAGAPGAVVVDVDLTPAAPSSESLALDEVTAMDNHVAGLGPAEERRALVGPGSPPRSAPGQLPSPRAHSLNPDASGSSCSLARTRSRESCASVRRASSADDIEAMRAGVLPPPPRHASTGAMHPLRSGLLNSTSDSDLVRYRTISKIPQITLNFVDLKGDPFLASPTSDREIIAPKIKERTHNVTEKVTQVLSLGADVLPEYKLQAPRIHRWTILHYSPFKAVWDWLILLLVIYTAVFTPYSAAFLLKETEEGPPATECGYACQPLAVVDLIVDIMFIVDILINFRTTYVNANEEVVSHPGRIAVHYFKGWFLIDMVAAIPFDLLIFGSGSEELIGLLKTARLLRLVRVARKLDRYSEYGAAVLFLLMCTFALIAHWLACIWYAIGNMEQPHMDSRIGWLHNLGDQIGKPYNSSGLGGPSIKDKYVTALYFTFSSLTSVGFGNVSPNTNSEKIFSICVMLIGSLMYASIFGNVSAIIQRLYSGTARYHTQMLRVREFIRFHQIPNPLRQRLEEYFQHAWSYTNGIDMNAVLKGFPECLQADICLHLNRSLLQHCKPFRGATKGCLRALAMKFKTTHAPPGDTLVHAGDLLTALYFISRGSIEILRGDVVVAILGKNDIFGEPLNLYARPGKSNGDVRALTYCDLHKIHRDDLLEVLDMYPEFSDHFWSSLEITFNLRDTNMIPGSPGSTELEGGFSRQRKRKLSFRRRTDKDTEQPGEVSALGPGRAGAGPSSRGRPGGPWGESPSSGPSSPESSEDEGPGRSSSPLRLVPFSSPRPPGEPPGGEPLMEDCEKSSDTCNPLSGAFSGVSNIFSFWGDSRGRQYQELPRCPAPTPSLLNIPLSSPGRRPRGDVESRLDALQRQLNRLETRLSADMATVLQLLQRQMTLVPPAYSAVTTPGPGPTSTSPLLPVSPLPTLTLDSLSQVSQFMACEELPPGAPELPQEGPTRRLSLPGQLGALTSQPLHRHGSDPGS
procedure-summary: Inhibition of hERG (unknown origin)
pIC50: −log10 of the molar value.
measured-property: pIC50

# returns recorded pIC50 (system: UniProt:Q12809) for CCn1c(-c2cnc(C)nc2)nc2c(N[C@H]3CCN(C(=O)C4CC4)C3)ncnc21
< 4.30

====

procedure-summary: Plasma protein binding in Brown Norway rat at 10 mg/kg, po
Format: ADME, organism-based
experimental-parameters: read-out: PPB (converted)
measured-property: fraction unbound
# answer = number (no unit)

Bench note: what fraction unbound did CCn1c(-c2cnc(C)nc2)nc2c(N[C@H]3CCN(C(=O)C4CC4)C3)ncnc21 show?
0.59

====

procedure-summary: Unbound volume of distribution in Beagle dog
Assay type: ADME, Canis lupus familiaris
experimental-parameters: in vivo
# if measured Vdu < 2 L/kg: yes  # else: no

These recorded examples may help you get a feel for the data.
compound: CCn1c(-c2cnc(C)nc2)nc2c(O[C@H]3CCN(C(=O)C4CC4)C3)ncnc21
label-class: yes

compound: CCC(=O)N1CC[C@H](Oc2ncnc3c2nc(-c2cnc(C)nc2)n3CC)C1
label-class: no

compound: CCn1c(-c2cnc(C)nc2)nc2c(N[C@H]3CCN(C(=O)C4CCC4)C3)ncnc21
label-class: no

compound: CCn1c(-c2cnc(C)nc2)nc2c(O[C@H]3CCN(C(=O)C4CCOCC4)C3)ncnc21
label-class: yes

compound: CCn1c(-c2cnc(C)nc2)nc2c(O[C@H]3CCN(C(=O)N4CC(OC)C4)C3)ncnc21
label-class: no

compound: CCn1c(-c2ccc(C(F)(F)F)nc2)nc2c(N[C@H]3CCN(C(=O)C4CC4)C3)ncnc21
label-class: no

State whether 2 L/kg exceeds Vdu recorded for CCn1c(-c2ccc(C(F)(F)F)nc2)nc2c(O[C@H]3CCN(C(=O)c4cocn4)C3)ncnc21 .
no

Also CCC(=O)N1CC[C@H](Nc2ncnc3c2nc(-c2cnc(C)nc2)n3CC)C1 , if possible.
yes

Okay, and CCn1c(-c2cnc(C)nc2)nc2c(O[C@H]3CCN(C(=O)c4cocn4)C3)ncnc21 ?
yes

For CCn1c(-c2cnc(C)nc2)nc2c(O[C@H]3CCN(C(=O)C4CCOC4)C3)ncnc21 (stereo partly specified) then?
yes

====

# maps each entry to its Vdu
procedure-summary: Unbound volume of distribution in Beagle dog
Assay type: ADME, Canis lupus familiaris
experimental-parameters: in vivo
Kindly answer with a numeric value in L/kg, unit omitted.

Use these answered entries as a reference point.
molecule: CCn1c(-c2ccc(C(F)(F)F)nc2)nc2c(O[C@H]3CCN(C(=O)N4CC(OC)C4)C3)ncnc21
Vdu / L/kg: 1.7

molecule: CCn1c(-c2cnc(C)nc2)nc2c(O[C@H]3CCN(C(=O)C4CCC4)C3)ncnc21
Vdu / L/kg: 1.4

Reported Vdu, molecule CCn1c(-c2ccc(C(F)(F)F)nc2)nc2c(O[C@H]3CCN(C(=O)C4CCOC4)C3)ncnc21 (stereo partly drawn) : ____
1.6

Same question, CCn1c(-c2ccc(C(F)(F)F)nc2)nc2c(O[C@H]3CCN(C(=O)[C@H]4C[C@@H](OC)C4)C3)ncnc21 this time
2.5

Next molecule up: CCn1c(-c2cnc(C)nc2)nc2c(O[C@H]3CCN(C(=O)[C@H]4C[C@@H](OC)C4)C3)ncnc21
0.9

====

system-tested: Phosphatidylinositol 4,5-bisphosphate 3-kinase catalytic subunit delta isoform (Homo sapiens)
Sequence (O00329 whole entry): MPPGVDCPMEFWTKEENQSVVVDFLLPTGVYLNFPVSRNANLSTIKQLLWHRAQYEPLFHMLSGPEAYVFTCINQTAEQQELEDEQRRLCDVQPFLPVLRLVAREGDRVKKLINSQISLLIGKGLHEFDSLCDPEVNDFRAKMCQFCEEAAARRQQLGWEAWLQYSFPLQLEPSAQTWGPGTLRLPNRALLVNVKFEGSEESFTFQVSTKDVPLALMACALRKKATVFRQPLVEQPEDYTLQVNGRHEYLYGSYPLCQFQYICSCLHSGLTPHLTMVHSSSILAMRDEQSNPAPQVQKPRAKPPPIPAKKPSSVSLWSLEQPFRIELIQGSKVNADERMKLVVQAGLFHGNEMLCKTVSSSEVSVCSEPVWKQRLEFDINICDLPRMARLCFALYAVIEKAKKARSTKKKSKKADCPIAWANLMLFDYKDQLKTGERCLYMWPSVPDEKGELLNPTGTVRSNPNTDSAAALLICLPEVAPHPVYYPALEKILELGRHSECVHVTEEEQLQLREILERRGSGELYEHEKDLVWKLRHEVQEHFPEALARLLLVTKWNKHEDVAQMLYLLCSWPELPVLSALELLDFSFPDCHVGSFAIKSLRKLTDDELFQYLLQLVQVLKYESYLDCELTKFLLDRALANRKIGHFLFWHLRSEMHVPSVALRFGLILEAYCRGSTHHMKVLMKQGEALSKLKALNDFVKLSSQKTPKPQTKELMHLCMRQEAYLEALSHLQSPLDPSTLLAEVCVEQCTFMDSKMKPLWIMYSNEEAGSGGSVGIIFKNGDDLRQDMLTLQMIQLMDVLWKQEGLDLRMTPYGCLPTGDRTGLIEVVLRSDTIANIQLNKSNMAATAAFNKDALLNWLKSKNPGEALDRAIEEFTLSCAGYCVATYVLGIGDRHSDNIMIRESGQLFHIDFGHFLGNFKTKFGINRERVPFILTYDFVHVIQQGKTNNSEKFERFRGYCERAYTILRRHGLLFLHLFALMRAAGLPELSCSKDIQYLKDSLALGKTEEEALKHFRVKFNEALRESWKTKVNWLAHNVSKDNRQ
procedure-summary: Inhibition of PI3Kdelta in human whole blood assessed as reduction in antihuman IgE antibody-stimulated CD63 expression preincubated for 30 mins followed by antihuman IgE antibody stimulation and measured after 20 mins by FACS analysis
Type: tissue-based
measured-property: pIC50
Conceptually, pIC50 converts a concentration in mol/L into minus its log10.

For CCn1c(-c2cnc(C)nc2)nc2c(N[C@H]3CCN(C(=O)C4CC4)C3)ncnc21 , what is its reported pIC50?
7.30

====

procedure-summary: Volume of distribution in Wistar Han rat
Type: ADME
experimental-parameters: in vivo
measured-property: Vd
Just the number plus its unit, please.

compound: CCn1c(-c2cnc(C)nc2)nc2c(N[C@H]3CCN(C(=O)C4CC4)C3)ncnc21
test-result: 1 L/kg

I'd like to know its Vd. The compound in question is CCC(=O)N1CC[C@H](Nc2ncnc3c2nc(-c2cnc(C)nc2)n3CC)C1
1 L/kg

And what about the compound CCn1c(-c2cnc(C)nc2)nc2c(N[C@H]3CCN(C(=O)[C@H]4C[C@@H](OC)C4)C3)ncnc21 ?
1.5 L/kg

# iterate: CCn1c(-c2cnc(C)nc2)nc2c(O[C@H]3CCN(C(=O)C4CC4)C3)ncnc21
0.7 L/kg

Now the compound CCn1c(-c2cnc(C)nc2)nc2c(N[C@H]3CCN(C(=O)C4CCOC4)C3)ncnc21 (stereo not given in full)
0.7 L/kg
